Measurement target: SARS-CoV-2 NSP3 Mac1 (Severe acute respiratory syndrome coronavirus 2)
Format: binding
Recorded conditions: PanDDA event map background density correction; crystal soak, compound concentration 100 mM
Please respond with reported 1-BDC for every item in the list.
One number for each entry.

Consider the worked cases shown below.
>>> reported("Cc1oc(CNc2ncnc3[nH]c4ccccc4c23)cc1C(=O)O")
0.09
>>> reported("O=C(NC1C=CC(C(=O)O)C1)c1ncnc2sccc12 (centres unmarked)")
0.4
>>> reported("CC(F)(F)c1cncc(C(=O)NC(Cc2cncc(Br)c2)C(=O)O)c1 (centres unmarked)")
0.1
>>> reported("CNc1cnc(C(=O)N2CC(c3noc(O)n3)C2)cn1.O=C(O)C(F)(F)F")
0.31
>>> reported("O=C(O)c1csc(CCNC(=O)c2cc3[nH]cnc3cc2F)n1")
0.1
>>> reported("O=C(NC1c2cccc(O)c2CC1C(=O)O)c1ccc2[nH]c(CO)nc2c1 (centres unmarked)")
0.19

# return 1-BDC for each item in the list
1. Cn1ccn2c(CCNC(=O)[C@H]3C[C@H]3C(=O)O)nnc2c1=O
2. Nc1ccc(C(=O)OC2c3ccccc3CC2C(=O)O)c(O)c1 (centres unmarked)

1: 0.3; 2: 0.37

----------
System: P-glycoprotein (human MDR1)
Assay method text: in vitro
Recorded conditions: dog, MDCK-MDR1, pH 7.4
Provide the reported Papp A→B of each item.
Answers are plain numbers, in ×10⁻⁶ cm/s.

>>> reported("O=C(NC1c2cccc(O)c2CC1C(=O)O)c1ccc2[nH]cnc2c1 (centres unmarked)")
1.1

// moving on: another record for Papp A→B
Reported Papp A→B ( O=C(NC1c2cccc(O)c2CC1C(=O)O)c1ccc2[nH]c(CO)nc2c1 (centres unmarked) ) = 0.8

----------
Test system: P-glycoprotein (human MDR1)
Assay method text: in vitro
Recorded conditions: dog, MDCK-MDR1, pH 7.4, permeability, MDR1-MDCKII, apical to basal
I'd be grateful if you could share measured Papp for these entries.
Give bare numbers, in ×10⁻⁶ cm/s.

>>> reported("O=C1CCCN1Nc1ncnc2[nH]c3cc(F)ccc3c12")
13.8

The reported Papp value, P-glycoprotein (human MDR1), for O=C(O)[C@H]1CCCC[C@H]1Nc1ncnc2[nH]c3cc(F)ccc3c12 reads 12

----------
Measurement target: SARS-CoV-2 NSP3 Mac1 (Severe acute respiratory syndrome coronavirus 2, UniProt P0DTD1)
Assay type: binding
Recorded conditions: PanDDA 1-BDC of the event; compound stock 100 mM, Echo dispense volume 80 nl
Please use Condition met whenever 1-BDC is not below 0.1, and Condition not met whenever it is.

Solved entries (count: 4):
>>> category("[O-][n+]1cccc(Nc2ncnc3[nH]c4cc(F)ccc4c23)c1")
"Condition met"
>>> category("CN(Cc1ccccn1)c1ncnc2[nH]c3cc(F)ccc3c12")
"Condition met"
>>> category("CN(c1ncnc2[nH]c3cc(F)ccc3c12)C1CCCS(=O)(=O)C1 (centres unmarked)")
"Condition not met"
>>> category("CS(=O)(=O)NC(=O)C1(F)CN(c2ncnc3[nH]c4cc(F)ccc4c23)CC12CCC2 (centres unmarked)")
"Condition met"

Below: the item to evaluate.
State whether the measured 1-BDC reaches 0.1, counting equality as reaching it, for O=C(O)CC1CN(c2ncnc3[nH]c4cc(F)ccc4c23)CC2(CCC2)O1 (centres unmarked) Condition met

These measurements were taken from paper PMC9926234.
